For each record, write down the corresponding IC50.
- Test system: OPM-2;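 further: growth of OPM-2 cells measured with a viability assay, IC50 for suppression of proliferation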
- assay text: cells
- Assay type: functional, cell-based
- condition context: Homo sapiens
- Description: SANGER: Inhibition of human OPM-2 cell growth in a cell viability assay.

Task: Fill in the blank: the reported IC50 of C=C1C(=O)O[C@@H]2C3O[C@]3(C)CC/C=C(\C)CC[C@@H]12 (stereo partly drawn) is ____.
Output: > 5000 nM

Task: Fill in the blank: the reported IC50 of `C=CCc1cccc(/C=N/NC(=O)CN2CCN(Cc3ccccc3)CC2)c1O` is ____.
Output: > 2560 nM

Task: Fill in the blank: the reported IC50 of `CN1CCN(CCOc2cc(OC3CCOCC3)c3c(Nc4c(Cl)ccc5c4OCO5)ncnc3c2)CC1` is ____.
Output: > 2000 nM

Task: Fill in the blank: the reported IC50 of `Cc1ccc(Nc2nccc(N(C)c3ccc4c(C)n(C)nc4c3)n2)cc1S(N)(=O)=O` is ____.
Output: > 8000 nM

Task: Fill in the blank: the reported IC50 of `CCC(=O)N1CCN(c2ccc(-n3c(=O)ccc4cnc5ccc(-c6cnc7ccccc7c6)cc5c43)cc2C(F)(F)F)CC1` is ____.
Output: 12.9 nM

Task: Fill in the blank: the reported IC50 of `CCc1nc(N)nc(N)c1-c1ccc(Cl)cc1` is ____.
Output: > 20000 nM

Task: Fill in the blank: the reported IC50 of `Cc1cc([C@@H](C)Nc2ccccc2C(=O)O)c2nc(N3CCOCC3)cc(=O)n2c1` is ____.
Output: > 5120 nM

Task: Fill in the blank: the reported IC50 of `CO[C@H]1C[C@@H]2CC[C@@H](C)[C@@](O)(O2)C(=O)C(=O)N2CCCC[C@H]2C(=O)O[C@H]([C@H](C)C[C@@H]2CC[C@@H](O)[C@H](OC)C2)CC(=O)[C@H](C)/C=C(\C)[C@@H](O)[C@@H](OC)C(=O)[C@H](C)C[C@H](C)/C=C/C=C/C=C/1C` is ____.
Output: 4.15 nM
